EXPERIMENTAL TARGET: T1, dimeric human LTBR-Fc biotinylated (P1AE2401) (human, UniProt P36941 31-227, biotinylated in vitro)
T1 construct: bought from R&D Systems (7538-LR); also called human LTBR ECD; not shown: human IgG1 Fc-Fragment
PROCEDURE TEXT: competition ELISA vs human LIGHT
REPORTED METRIC: rel. fit top (OD)
# number only, unit OD dropped from output

Below, each entry is followed by its recorded rel. fit top (OD) result.
>  <BINDER>
P1AE9459 (antibody, human IgG1, kappa, L234A L235A, V domains shown, human IgG1 PG LALA; from transgenic rabbit immunization) VH: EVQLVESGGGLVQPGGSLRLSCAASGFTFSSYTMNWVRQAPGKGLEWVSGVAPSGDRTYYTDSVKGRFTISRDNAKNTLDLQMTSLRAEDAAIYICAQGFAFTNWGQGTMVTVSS VL: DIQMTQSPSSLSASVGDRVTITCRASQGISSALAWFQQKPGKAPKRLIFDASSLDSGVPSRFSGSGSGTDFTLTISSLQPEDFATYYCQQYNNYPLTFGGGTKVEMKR

>  <UNIT INFO>
OD

>  <rel. fit top (OD)>
1.3

$$$$
>  <BINDER>
P1AE1873 (CBE11) (antibody, human IgG1, kappa, L234A L235A, V domains shown) VH: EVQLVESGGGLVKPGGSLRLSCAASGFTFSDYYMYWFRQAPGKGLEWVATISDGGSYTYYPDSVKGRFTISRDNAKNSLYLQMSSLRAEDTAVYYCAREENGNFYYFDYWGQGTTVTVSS VL: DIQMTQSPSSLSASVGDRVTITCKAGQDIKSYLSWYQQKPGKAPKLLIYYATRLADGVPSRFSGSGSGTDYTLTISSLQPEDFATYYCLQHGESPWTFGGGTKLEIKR

>  <UNIT INFO>
OD

>  <rel. fit top (OD)>
1.2

$$$$
>  <BINDER>
P1AF0064 (antibody, human IgG1, kappa, L234A L235A, V domains shown, human IgG1 PG LALA constant regions; V domains from rat immunization; also called LTBR (0064)) VH: EVQLQQYGAELGKPGTSVKLSCKVSGYNIGNTYIHWVIQRPGKGLEWIGRIDPTNGNTICTEKFKNKATLTADLSSNTAYMQLSQLKSDDTAIYFCAPTTLTTPDSFAYWGQGTLVTVSS VL: DIQMTQSPSQLSASVGDRVTLSCKASQNIYKYLNWYQQKLGEAPRLLIYSTNILQTGIPSRFSGSGSGTDYTLTISSLQPEDAATYFCQKYYSGFTFGSGTKLEMKR

>  <UNIT INFO>
OD

>  <rel. fit top (OD)>
1.3

$$$$

Query :: Quick check: rel. fit top (OD) of P1AF0079 (antibody, human IgG1, kappa, L234A L235A, V domains shown, human IgG1 PG LALA; from transgenic rabbit immunization; also called LTBR (0079)) VH: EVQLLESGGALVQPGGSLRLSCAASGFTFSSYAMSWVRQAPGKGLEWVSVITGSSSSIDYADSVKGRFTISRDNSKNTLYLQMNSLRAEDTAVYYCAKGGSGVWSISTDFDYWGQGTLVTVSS VL: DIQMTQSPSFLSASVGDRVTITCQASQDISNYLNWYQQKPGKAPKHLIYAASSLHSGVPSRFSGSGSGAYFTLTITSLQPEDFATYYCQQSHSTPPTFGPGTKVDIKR ?
Result :: 1.3
